These measurements were taken from the NIST ThermoML archive (doi:10.1021/je200790q).

- conditionLabel: 313.15 K; 101.33 kPa; Liquid
measureName: viscosity (mPa·s)
Please respond with the number in mPa·s and leave the unit unwritten.

Consider the molecule CCn1cc[n+](C)c1.CO[PH](=O)[O-] [1-ethyl-3-methylimidazolium methyl phosphonate] and give its measured viscosity.
90.83

Likewise for CCn1cc[n+](C)c1.N#C[S-] [1-ethyl-3-methylimidazolium thiocyanate] ?
15.49

Would you kindly repeat that for CCn1cc[n+](C)c1.COP(=O)([O-])OC [1-ethyl-3-methylimidazolium dimethylphosphate] ?
110.51

What do you get for CCn1cc[n+](C)c1.N#CN=C=[N-] [1-ethyl-3-methylimidazolium dicyanamide] ?
10.72

Thanks! And CC(=O)[O-].CCn1cc[n+](C)c1 [1-ethyl-3-methylimidazolium acetate] ?
61.33

Same lookup for CCn1cc[n+](C)c1.CS(=O)(=O)[O-] [1-ethyl-3-methylimidazolium methanesulfonate] , please.
72.64

And for CCn1cc[n+](C)c1.Cc1ccc(S(=O)(=O)[O-])cc1 [1-ethyl-3-methylimidazolium 4-methylbenzenesulfonate] ?
531.73

Can you handle CCn1cc[n+](C)c1.O=S(=O)([O-])C(F)(F)F [1-ethyl-3-methylimidazolium trifluoromethanesulfonate] next?
26.09

###

What mass density was measured for each of the following?
- conditionLabel: 343.15 K; 101.33 kPa; Liquid; Vibrating tube method
Kindly answer with a numeric value in kg/m3, unit omitted.

Which mass density reading was recorded for the molecule CCn1cc[n+](C)c1.N#C[S-] [1-ethyl-3-methylimidazolium thiocyanate] ?
1090.1

What do you have for CCn1cc[n+](C)c1.CS(=O)(=O)[O-] [1-ethyl-3-methylimidazolium methanesulfonate] ?
1212.3

Subsequent entry: CCn1cc[n+](C)c1.COP(=O)([O-])OC [1-ethyl-3-methylimidazolium dimethylphosphate]
1187.4

Likewise for CCn1cc[n+](C)c1.N#CN=C=[N-] [1-ethyl-3-methylimidazolium dicyanamide] ?
1074.7

What would you report for CC(=O)[O-].CCn1cc[n+](C)c1 [1-ethyl-3-methylimidazolium acetate] ?
1072.1

Queued: CCn1cc[n+](C)c1.O=S(=O)([O-])C(F)(F)F [1-ethyl-3-methylimidazolium trifluoromethanesulfonate]
1348.4

Same question, CCn1cc[n+](C)c1.CO[PH](=O)[O-] [1-ethyl-3-methylimidazolium methyl phosphonate] this time
1179.9

How about CCn1cc[n+](C)c1.Cc1ccc(S(=O)(=O)[O-])cc1 [1-ethyl-3-methylimidazolium 4-methylbenzenesulfonate] ?
1197.6

###

- conditionLabel: 308.15 K; 101.33 kPa; Liquid
Answer each item with its documented viscosity.
Numbers only; they are read as mPa·s.

Which viscosity value is on record for CCn1cc[n+](C)c1.Cc1ccc(S(=O)(=O)[O-])cc1 [1-ethyl-3-methylimidazolium 4-methylbenzenesulfonate] ?
842.45

Try CCn1cc[n+](C)c1.COP(=O)([O-])OC [1-ethyl-3-methylimidazolium dimethylphosphate] next.
144.32

Follow-up entry: CCn1cc[n+](C)c1.N#CN=C=[N-] [1-ethyl-3-methylimidazolium dicyanamide]
12.16

Queued: CCn1cc[n+](C)c1.CS(=O)(=O)[O-] [1-ethyl-3-methylimidazolium methanesulfonate]
93.48

Also CCn1cc[n+](C)c1.CO[PH](=O)[O-] [1-ethyl-3-methylimidazolium methyl phosphonate] , if possible.
116.89

Moving on to the next molecule: CCn1cc[n+](C)c1.O=S(=O)([O-])C(F)(F)F [1-ethyl-3-methylimidazolium trifluoromethanesulfonate]
30.48

Proceed to CCn1cc[n+](C)c1.N#C[S-] [1-ethyl-3-methylimidazolium thiocyanate]
17.86

Same read-out for CC(=O)[O-].CCn1cc[n+](C)c1 [1-ethyl-3-methylimidazolium acetate] ?
79.32

###

- conditionLabel: 313.15 K; 101.33 kPa; Liquid; Vibrating tube method
measureName: mass density (kg/m3)
The reply should contain only the number, in kg/m3.

Field request: mass density | item: CC(=O)[O-].CCn1cc[n+](C)c1 [1-ethyl-3-methylimidazolium acetate]
1090

Repeat with CCn1cc[n+](C)c1.CS(=O)(=O)[O-] [1-ethyl-3-methylimidazolium methanesulfonate]
1232.2

Next molecule: CCn1cc[n+](C)c1.O=S(=O)([O-])C(F)(F)F [1-ethyl-3-methylimidazolium trifluoromethanesulfonate]
1373.1

Moving on to CCn1cc[n+](C)c1.Cc1ccc(S(=O)(=O)[O-])cc1 [1-ethyl-3-methylimidazolium 4-methylbenzenesulfonate]
1216.6

# iterate: CCn1cc[n+](C)c1.N#C[S-] [1-ethyl-3-methylimidazolium thiocyanate]
1107.8

Record: CCn1cc[n+](C)c1.N#CN=C=[N-] [1-ethyl-3-methylimidazolium dicyanamide]
1094

And what about the molecule CCn1cc[n+](C)c1.CO[PH](=O)[O-] [1-ethyl-3-methylimidazolium methyl phosphonate] ?
1198.6

Thanks! And CCn1cc[n+](C)c1.COP(=O)([O-])OC [1-ethyl-3-methylimidazolium dimethylphosphate] ?
1207.1

###

- conditionLabel: 363.15 K; 101.33 kPa; Liquid
Assign viscosity to each entry below.
Only the number, expressed in mPa·s, is required.

What value of measured viscosity is listed for CCn1cc[n+](C)c1.O=S(=O)([O-])C(F)(F)F [1-ethyl-3-methylimidazolium trifluoromethanesulfonate] ?
8.169

What do we get for CCn1cc[n+](C)c1.CS(=O)(=O)[O-] [1-ethyl-3-methylimidazolium methanesulfonate] ?
13.33

One more compound: CCn1cc[n+](C)c1.COP(=O)([O-])OC [1-ethyl-3-methylimidazolium dimethylphosphate]
17.53

Try this compound next: CCn1cc[n+](C)c1.N#CN=C=[N-] [1-ethyl-3-methylimidazolium dicyanamide]
4.229

###

Consider the following compounds; for each one, report its mass density.
- conditionLabel: 323.15 K; 101.33 kPa; Liquid; Vibrating tube method
Reply numerically in kg/m3, unit not repeated.

For the compound CCn1cc[n+](C)c1.COP(=O)([O-])OC [1-ethyl-3-methylimidazolium dimethylphosphate] , what mass density is on record?
1200.5

Note, next up: CC(=O)[O-].CCn1cc[n+](C)c1 [1-ethyl-3-methylimidazolium acetate]
1084

Same thing, different compound: CCn1cc[n+](C)c1.N#CN=C=[N-] [1-ethyl-3-methylimidazolium dicyanamide]
1087.4

Would you kindly repeat that for CCn1cc[n+](C)c1.N#C[S-] [1-ethyl-3-methylimidazolium thiocyanate] ?
1101.8

Consider next the compound CCn1cc[n+](C)c1.O=S(=O)([O-])C(F)(F)F [1-ethyl-3-methylimidazolium trifluoromethanesulfonate] in the same way.
1364.8

// same read-out, input: CCn1cc[n+](C)c1.CS(=O)(=O)[O-] [1-ethyl-3-methylimidazolium methanesulfonate]
1225.5

And CCn1cc[n+](C)c1.Cc1ccc(S(=O)(=O)[O-])cc1 [1-ethyl-3-methylimidazolium 4-methylbenzenesulfonate] ?
1210

Next compound up: CCn1cc[n+](C)c1.CO[PH](=O)[O-] [1-ethyl-3-methylimidazolium methyl phosphonate]
1192.3

###

Kindly state viscosity for each of the entries shown.
- conditionLabel: 303.15 K; 101.33 kPa; Liquid
Form entry: value (mPa·s) — number only.

Quick check: viscosity of CCn1cc[n+](C)c1.COP(=O)([O-])OC [1-ethyl-3-methylimidazolium dimethylphosphate] ?
192.68

Now give it for CC(=O)[O-].CCn1cc[n+](C)c1 [1-ethyl-3-methylimidazolium acetate] too.
105.3

Proceed to CCn1cc[n+](C)c1.O=S(=O)([O-])C(F)(F)F [1-ethyl-3-methylimidazolium trifluoromethanesulfonate]
35.98

Would you kindly repeat that for CCn1cc[n+](C)c1.CO[PH](=O)[O-] [1-ethyl-3-methylimidazolium methyl phosphonate] ?
153.63

Lookup CCn1cc[n+](C)c1.N#C[S-] [1-ethyl-3-methylimidazolium thiocyanate]
20.79

Entry CCn1cc[n+](C)c1.Cc1ccc(S(=O)(=O)[O-])cc1 [1-ethyl-3-methylimidazolium 4-methylbenzenesulfonate] please
1417.4

And CCn1cc[n+](C)c1.CS(=O)(=O)[O-] [1-ethyl-3-methylimidazolium methanesulfonate] ?
123.14

Repeat for the following compound: CCn1cc[n+](C)c1.N#CN=C=[N-] [1-ethyl-3-methylimidazolium dicyanamide]
13.92

###

- conditionLabel: 318.15 K; 101.33 kPa; Liquid
We label by threshold. Values of viscosity strictly beneath 50 mPa·s are condition met. Values of 50 mPa·s and up are condition not met.

viscosity under 50 mPa·s? Item: CCn1cc[n+](C)c1.CO[PH](=O)[O-] [1-ethyl-3-methylimidazolium methyl phosphonate]
condition not met

And CCn1cc[n+](C)c1.CS(=O)(=O)[O-] [1-ethyl-3-methylimidazolium methanesulfonate] ?
condition not met

Please answer likewise for CCn1cc[n+](C)c1.COP(=O)([O-])OC [1-ethyl-3-methylimidazolium dimethylphosphate]
condition not met

And CCn1cc[n+](C)c1.O=S(=O)([O-])C(F)(F)F [1-ethyl-3-methylimidazolium trifluoromethanesulfonate] ?
condition met

Param item: CCn1cc[n+](C)c1.N#CN=C=[N-] [1-ethyl-3-methylimidazolium dicyanamide]
condition met

Param item: CC(=O)[O-].CCn1cc[n+](C)c1 [1-ethyl-3-methylimidazolium acetate]
condition met

CCn1cc[n+](C)c1.Cc1ccc(S(=O)(=O)[O-])cc1 [1-ethyl-3-methylimidazolium 4-methylbenzenesulfonate] , same question.
condition not met

Follow-up item: CCn1cc[n+](C)c1.N#C[S-] [1-ethyl-3-methylimidazolium thiocyanate]
condition met
